Target: T1, RBFOX1 RRM RbFoxmut (Fox-RRM*) (Homo sapiens, UniProt Q9NWB1 109-208, R118D;E147R;N151S;E152T)
T1 sequence: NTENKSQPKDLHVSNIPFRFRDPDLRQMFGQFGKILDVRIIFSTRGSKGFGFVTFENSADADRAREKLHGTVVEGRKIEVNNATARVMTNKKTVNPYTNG
Assay: EMSA; HiTS-Eq, 1 nM pool, 10 min; buffer printed only for the single-RNA assays: 10 mM Tris pH 7.5, 150 mM NaCl, 3.4 mM EDTA, 0.001% NP-40, 30 C
Conditions: tags: His6 N-terminal (pET28a); label: 5' 32P
The full ranking holds about 16,000 sequences; the median of “ka relative to ugcaugu” is about 0.096, and the highest 2% start at about 0.35. This excerpt belongs to a sample that is enriched for the highest values.
experimental_endpoint: binding signal

In: Consider the binder GAACGUC (DNA:RNA) RNA: GGGAGACCGGAAUUCAGAUUGUCCGAACGUCUUAAAUCCCGUCGUAGCCACCA DNA 1: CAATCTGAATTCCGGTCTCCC DNA 2: TGGTGGCTACGACGGGATT and give its measured binding signal.
Out: 0.102 KA relative to UGCAUGU

In: // lookup binding signal for GCGACCG (DNA:RNA) RNA: GGGAGACCGGAAUUCAGAUUGUCCGCGACCGUUAAAUCCCGUCGUAGCCACCA DNA 1: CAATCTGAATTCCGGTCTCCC DNA 2: TGGTGGCTACGACGGGATT
Out: 0.111 KA relative to UGCAUGU

In: Entry under review: GCGAACC (DNA:RNA) RNA: GGGAGACCGGAAUUCAGAUUGUCCGCGAACCUUAAAUCCCGUCGUAGCCACCA DNA 1: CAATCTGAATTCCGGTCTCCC DNA 2: TGGTGGCTACGACGGGATT . Reported binding signal?
Out: 0.0798 KA relative to UGCAUGU

In: Which binding signal reading was recorded for the binder GCGAAUC (DNA:RNA) RNA: GGGAGACCGGAAUUCAGAUUGUCCGCGAAUCUUAAAUCCCGUCGUAGCCACCA DNA 1: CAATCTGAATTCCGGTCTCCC DNA 2: TGGTGGCTACGACGGGATT ?
Out: 0.385 KA relative to UGCAUGU
